Hello, the source for this data is patent US8658801B2, in case you need it.

Each entry below carries its recorded pest or weed control at 400 ppm.
System: Spodoptera littoralis (Egyptian Cotton Leafworm)
Method Description: Example B1: activity against Spodoptera littoralis, larvicide, feeding/residual contact, preventive (cotton leaf discs)
Format: in vivo
Measurement Conditions: foliar, 72 h, 3 days after treatment, L1 larvae

Below are worked cases with known answers.
given_smiles=COc1cc(C(=O)Nc2c(Cl)cc3c(Br)n[nH]c3c2C(=O)NC(C)C)n(-c2ncccc2Cl)n1 assay_result="> 80%"
given_smiles=CC(C)NC(=O)c1c(NC(=O)c2cc(C(F)(F)F)nn2-c2ncccc2Cl)ccc2cc[nH]c12 assay_result="> 80%"
given_smiles=Cc1ccc2c(C(=O)NC(C)C)c(NC(=O)c3cc(C(F)(F)F)nn3-c3ncccc3Cl)c(C)cc2n1 assay_result="> 80%"

Ask | Notebook entry, Spodoptera littoralis (Egyptian Cotton Leafworm) assay: pest or weed control at 400 ppm of COc1cc(C(=O)Nc2c(Cl)cc3c(Br)n[nH]c3c2C(=O)NC2(C3CC3)CC2)n(-c2ncccc2Cl)n1 = ?
Reply | > 80%

----------
System: Spodoptera littoralis (Egyptian Cotton Leafworm)
Method Description: Example B1: activity against Spodoptera littoralis, larvicide, feeding/residual contact, preventive (cotton leaf discs)
Type: in vivo
Measurement Conditions: foliar, 72 h, 3 days after treatment, L1 larvae
Below, each entry is listed with its recorded pest or weed control at 400 ppm.

given_smiles=COc1cc(C(=O)Nc2c(C#N)cc3cn[nH]c3c2C(=O)NC2(C3CC3)CC2)n(-c2ncccc2Cl)n1 assay_result="> 80%"
given_smiles=CC(C)NC(=O)c1c(NC(=O)c2cc(C(F)(F)F)nn2-c2ncccc2Cl)c(Br)cc2cn[nH]c12 assay_result="> 80%"
given_smiles=Cc1cc2cn[nH]c2c(C(=O)NC(C)C)c1NC(=O)c1cc(C(F)F)nn1-c1ncccc1Cl assay_result="> 80%"

Ask | Tell me reported pest or weed control at 400 ppm for Cc1cc2c(ccc(C)[n+]2[O-])c(C(=O)NC(C)C)c1NC(=O)c1cc(C(F)(F)F)nn1-c1ncccc1Cl , tested with Spodoptera littoralis (Egyptian Cotton Leafworm).
Reply | > 80%

Ask | Input CSCC(C)(C)NC(=O)c1c(NC(=O)c2cc(C(F)(F)F)nn2-c2ncccc2Cl)c(Br)cc2cn[nH]c12
Reply | > 80%

----------
Recorded Endpoint: melting point

Ask | Consider the molecule Cc1cc2cn[nH]c2c(C(=O)NC2(C3CC3)CC2)c1NC(=O)c1cc(C(F)F)nn1-c1ncccc1Cl and give its measured melting point.
Reply | 224 to 227 °C

Ask | # repeat for CC(C)NC(=O)c1c(NC(=O)c2cc(C(F)(F)F)nn2-c2ncccc2Cl)ccc2cccnc12 [P.73]
Reply | 225 to 226 °C

Ask | Subsequent entry: C#Cc1cc2cn[nH]c2c(C(=O)NC2(C3CC3)CC2)c1NC(=O)c1cc(C(F)F)nn1-c1ncccc1Cl [P.81]
Reply | 218 to 221 °C

Ask | // next record CNC(=O)c1c(NC(=O)c2cc(C(F)(F)F)nn2-c2ncccc2Cl)ccc2ncccc12 [Example 46]
Reply | 210 to 211 °C

Ask | Same for C#Cc1cc2cn[nH]c2c(C(=O)NC(C)C)c1NC(=O)c1cc(C(F)(F)F)nn1-c1ncccc1Cl [Example 34]
Reply | 226 to 229 °C

Ask | Continue with C#Cc1cc2cn[nH]c2c(C(=O)NC(C)C)c1NC(=O)c1cc(C(F)F)nn1-c1ncccc1Cl [P.80]
Reply | 233 to 236 °C
